Cited source for all entries: patent US20260327264A1

Biological target: human IL-23R (Homo sapiens)
Construct: Nanoluc luciferase (Nluc); secretion signal encoded by the plasmid (not specified); expressed in transfected cells; crude membranes used in the assay
Sequence (Q5VWK5 22-629): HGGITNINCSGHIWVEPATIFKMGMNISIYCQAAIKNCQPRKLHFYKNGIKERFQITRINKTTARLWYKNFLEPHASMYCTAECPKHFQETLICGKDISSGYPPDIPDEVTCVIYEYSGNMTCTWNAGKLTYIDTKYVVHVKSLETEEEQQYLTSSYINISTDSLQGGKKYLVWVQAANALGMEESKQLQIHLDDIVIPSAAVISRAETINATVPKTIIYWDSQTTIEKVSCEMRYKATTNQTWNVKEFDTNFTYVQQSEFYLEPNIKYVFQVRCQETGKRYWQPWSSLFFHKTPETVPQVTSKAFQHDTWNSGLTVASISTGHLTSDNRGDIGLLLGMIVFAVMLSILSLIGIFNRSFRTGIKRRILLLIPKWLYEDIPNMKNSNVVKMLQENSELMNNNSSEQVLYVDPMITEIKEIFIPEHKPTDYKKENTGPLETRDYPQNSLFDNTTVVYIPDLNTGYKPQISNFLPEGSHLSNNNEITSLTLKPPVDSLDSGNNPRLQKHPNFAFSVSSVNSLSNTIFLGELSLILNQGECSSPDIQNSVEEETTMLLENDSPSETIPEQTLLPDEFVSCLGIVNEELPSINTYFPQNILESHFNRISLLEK
Test: Binding assay: displacement of fluorophore (TAMRA)-labelled reference compound from human IL-23R (BRET, Nluc-IL23R fusion protein membranes)
Settings: read-out: % displacement (hIL-23R binding)
*1 amine or outer side, *2 acyl side, *3 side chain or, on linkers, in order; H or OH if unused. Where a SMILES comes first, the peptide text is derived from it. Bridges are numbered along the chain shown (N, C = ends). [ ]: non-standard residue; d: D form. 2Nal = N[C@@H](Cc1ccc2ccccc2c1)C(=O)O; AEF = NCCOc1ccc(C[C@H](N)C(=O)O)cc1; X1 = O=C(Cc1ccc(CN[*:1])cc1)[*:2]; 3Pal = N[C@@H](Cc1cccnc1)C(=O)O; αMeL = CC(C)C[C@](C)(N)C(=O)O; CH2COCH2 = O=C(C[*:1])C[*:2]; Dab = NCC[C@H](N)C(=O)O
Catalogue of Emax values
Write the answer as a number in %, unit excluded.

compound	Emax [%]
CNC(=O)[C@H](Cc1cccnc1)NC(=O)[C@H](CCN)NC(=O)[C@@H]1CCC(=O)NCc2ccc(cc2)CC(=O)N[C@@H](C)C(=O)N[C@H]2CCC(=O)NCC[C@H](NC(=O)[C@H](CCC(N)=O)NC(=O)[C@H](Cc3c[nH]c4ccccc34)NC2=O)C(=O)N[C@@H](CCc2ccccc2)C(=O)N[C@@H](Cc2ccc3ccccc3c2)C(=O)NC(C)(C)C(=O)N1 [Compound 41]	104

Please look at the following compound next.
Query block: // query Emax value for entry CC(C)C[C@]1(C)NC(=O)[C@H](Cc2ccc3ccccc3c2)NC(=O)[C@H](Cc2ccc(OCCN)cc2)NC(=O)[C@@H]2CSCC(=O)CSC[C@H](NC(=O)[C@H](CO)NC(=O)Cc3ccc(cc3)CNC(=O)CC[C@@H](C(=O)N[C@@H](CCN)C(=O)N[C@@H](Cc3cccnc3)C(N)=O)NC1=O)C(=O)N[C@@H](Cc1c[nH]c3ccccc13)C(=O)N[C@@H](CCC(N)=O)C(=O)N2 [Ref 120, reference compound] ([X1]SCWQC[AEF][2Nal][αMeL]E[Dab][3Pal]-NH2; linker 3-6 via CH2COCH2; lactam N-10)
Result block: 94
